- tested.system: IgG receptor FcRn large subunit p51 (Homo sapiens, UniProt P55899)
- Sequence (P55899 whole entry): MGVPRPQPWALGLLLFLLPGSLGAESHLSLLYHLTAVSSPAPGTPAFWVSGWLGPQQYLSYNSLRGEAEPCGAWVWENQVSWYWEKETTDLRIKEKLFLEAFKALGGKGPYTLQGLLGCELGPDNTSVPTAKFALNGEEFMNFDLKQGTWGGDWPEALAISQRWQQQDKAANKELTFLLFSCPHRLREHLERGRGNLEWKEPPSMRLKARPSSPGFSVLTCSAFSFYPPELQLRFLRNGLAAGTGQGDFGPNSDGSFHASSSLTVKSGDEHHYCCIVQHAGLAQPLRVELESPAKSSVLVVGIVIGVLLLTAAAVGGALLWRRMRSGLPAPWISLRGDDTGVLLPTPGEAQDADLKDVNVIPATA
- experimental.details: Binding affinity to human FcRn at pH 6 by surface plasmon resonance assay
experimental.readout: pKd
Quick note: pKd means taking -log10 of the concentration in moles per liter.

# get_value(readout='pKd', item= CC(C)C[C@H](NC(=O)CNC(=O)CNC(=O)[C@H](Cc1ccccc1)NC(=O)[C@H](Cc1cnc[nH]1)NC(=O)CNC(=O)[C@@H](NC(=O)[C@H](CS)NC(=O)[C@H](Cc1ccccc1)NC(=O)[C@@H](N)CCCN=C(N)N)[C@@H](C)O)C(=O)N[C@@H](Cc1ccc(O)cc1)C(=O)N1CCC[C@H]1C(=O)N[C@@H](CS)C(=O)O ) 5.00

Could you tell me which pKd is on file for CC(C)C[C@@H](C(=O)N[C@@H](Cc1ccc(O)cc1)C(=O)N1CCC[C@H]1C(=O)N[C@@H](CS)C(=O)O)N(C)C(=O)CN(C)C(=O)CNC(=O)[C@H](Cc1ccccc1)NC(=O)[C@H](C)NC(=O)CNC(=O)[C@@H](NC(=O)[C@@H](NC(=O)[C@H](Cc1ccccc1)NC(=O)[C@@H](N)CCCNC(=N)N)C(C)(C)S)[C@@H](C)O ? 5.00

----------
- tested.system: IgG receptor FcRn large subunit p51 (Homo sapiens)
- experimental.details: Inhibition of human IgG binding to soluble human FcRn by ELISA
Provide the reported pIC50 of each item.
# pIC50 = -log10(concentration in molar units)

What pIC50 appears in the records for this molecule with IgG receptor FcRn large subunit p51 (Homo sapiens)? CC(C)C[C@H](NC(=O)CNC(=O)CNC(=O)[C@H](Cc1ccccc1)NC(=O)[C@H](Cc1cnc[nH]1)NC(=O)CNC(=O)[C@@H](NC(=O)[C@H](CCC(=O)O)NC(=O)[C@H](Cc1ccccc1)NC(=O)[C@H](CCCN=C(N)N)NC(=O)[C@@H](N)CCC(N)=O)[C@@H](C)O)C(=O)N[C@@H](Cc1ccc(O)cc1)C(=O)N1CCC[C@H]1C(=O)N[C@@H](CCCN)C(=O)N[C@@H](CC(N)=O)C(=O)NCC(=O)N1CCC[C@H]1C(=O)O 4.10

Tell me reported pIC50 for CC(C)C[C@@H](C(=O)N[C@@H](Cc1ccc(O)cc1)C(=O)N1CCC[C@H]1C(=O)N[C@@H](CS)C(=O)O)N(C)C(=O)CN1CCCC[C@@H](NC(=O)[C@H](Cc2ccccc2)NC(=O)[C@H](Cc2cnc[nH]2)NC(=O)CNC(=O)[C@@H](NC(=O)[C@H](NC(=O)[C@H](Cc2ccccc2)NC(=O)[C@@H](N)CCCNC(=N)N)C(C)(C)S)[C@@H](C)O)C1=O , tested with IgG receptor FcRn large subunit p51 (Homo sapiens). 6.21

Reported pIC50 for IgG receptor FcRn large subunit p51 (Homo sapiens), given CC(C)C[C@H](NC(=O)[C@H]1CSC2C[C@@H](NC(=O)[C@H](Cc3ccccc3)NC(=O)[C@H](Cc3cnc[nH]3)NC(=O)CNC(=O)[C@@H](NC(=O)[C@H](NC(=O)[C@H](Cc3ccccc3)NC(=O)[C@@H](N)CCCNC(=N)N)C(C)(C)S)[C@@H](C)O)C(=O)N21)C(=O)N[C@@H](Cc1ccc(O)cc1)C(=O)N1CCC[C@H]1C(=O)N[C@@H](CS)C(=O)O (stereo not given in full) ? 4.64

I'm curious: which pIC50 was measured for CC(C)C[C@H](NC(=O)[C@@H](C)NC(=O)CNC(=O)[C@H](Cc1ccccc1)NC(=O)[C@H](Cc1cnc[nH]1)NC(=O)CNC(=O)[C@@H](NC(=O)[C@H](CS)NC(=O)[C@H](Cc1ccccc1)NC(=O)[C@H](CCCN=C(N)N)NC(=O)[C@@H](N)CCC(N)=O)[C@@H](C)O)C(=O)N[C@@H](Cc1ccc(O)cc1)C(=O)N1CCC[C@H]1C(=O)N[C@@H](CS)C(=O)N[C@@H](CC(N)=O)C(=O)NCC(=O)N1CCC[C@H]1C(=O)O tested on IgG receptor FcRn large subunit p51 (Homo sapiens)? 4.24

----------
- tested.system: IgG receptor FcRn large subunit p51 (Homo sapiens, UniProt P55899)
- experimental.details: Binding affinity to human FcRn at pH 6 by surface plasmon resonance assay
experimental.readout: pKd
# pKd: negative log10 of molar concentration; output just the value

Recorded pKd of CC(C)C[C@H](NC(=O)[C@H]1CCCN1C(=O)[C@@H](Cc1ccccc1)NC(=O)[C@H](Cc1ccccc1)NC(=O)[C@H](Cc1cnc[nH]1)NC(=O)CNC(=O)[C@@H](NC(=O)[C@@H](NC(=O)[C@H](Cc1ccccc1)NC(=O)[C@H](CCCN=C(N)N)NC(=O)[C@@H](N)CCC(N)=O)C(C)(C)S)[C@@H](C)O)C(=O)N[C@@H](Cc1ccc(O)cc1)C(=O)N1CCC[C@H]1C(=O)N[C@@H](CS)C(=O)N[C@@H](CC(N)=O)C(=O)NCC(=O)N1CCC[C@H]1C(=O)O , please. 6.14

----------
What pKd was measured for each of the following?
- tested.system: IgG receptor FcRn large subunit p51 (Homo sapiens, UniProt P55899)
- experimental.details: Binding affinity to human FcRn at pH 6 by surface plasmon resonance assay
Answer as the number alone; pKd is minus log10 of concentration in mol/L.

Value lookup for pKd; key = CC(C)C[C@@H](C(=O)N[C@@H](Cc1ccc(O)cc1)C(=O)N1CCC[C@H]1C(=O)N[C@@H](CS)C(=O)O)N(C)C(=O)CN(C)C(=O)CNC(=O)[C@H](Cc1ccccc1)NC(=O)[C@H](CCCNC(=N)N)NC(=O)CNC(=O)[C@@H](NC(=O)[C@@H](NC(=O)[C@H](Cc1ccccc1)NC(=O)[C@@H](N)CCCNC(=N)N)C(C)(C)S)[C@@H](C)O 6.30

Fill blank: measured pKd of the compound CC(C)C[C@H](NC(=O)CNC(=O)CNC(=O)[C@H](Cc1ccccc1)NC(=O)[C@H](Cc1cnc[nH]1)NC(=O)CNC(=O)[C@@H](NC(=O)[C@H](CS)NC(=O)[C@H](Cc1ccccc1)NC(=O)[C@H](CCCNC(=N)N)NC(=O)[C@@H](N)CCC(N)=O)[C@@H](C)O)C(=O)N[C@@H](Cc1ccccc1)C(=O)N1CCC[C@H]1C(=O)N[C@@H](CS)C(=O)N[C@@H](CC(N)=O)C(=O)NCC(=O)N1CCC[C@H]1C(=O)O is ____. 3.64

----------
- tested.system: IgG receptor FcRn large subunit p51 (Homo sapiens)
- experimental.details: Inhibition of human IgG binding to soluble human FcRn by ELISA
Bridge positions count the residues as written; N and C are the ends. Square brackets hold non-standard residues; d marks the D form. Peptide text beside a SMILES is read from it. Dab = NCC[C@H](N)C(=O)O
Could you please report measured pIC50 for the items listed next?
Entry type: numeric. Quantity: pIC50, the -log10 of concentration in molar units.

Given the compound CC[C@H](C)[C@H](NC(=O)[C@@H](NC(=O)[C@@H](N)CCCCN)[C@@H](C)CC)C(=O)N[C@H]1CSSC[C@@H](C(=O)N[C@@H](CCC(N)=O)C(=O)NCC(=O)N[C@@H](CCCCN)C(=O)O)NC(=O)[C@H](Cc2ccc(O)cc2)NC(=O)[C@H](CCSC)NC(=O)CNC(=O)CNC(=O)[C@H](Cc2ccccc2)NC(=O)[C@H](Cc2cnc[nH]2)NC(=O)CNC(=O)[C@@H]2CCCN2C(=O)[C@H](CO)NC1=O (H-KIICSPGHFGGMYCQGK-OH; disulfide 4-14) , what is its reported pIC50? 4.19

I would be grateful if you could share the reported pIC50 for CC(C)C[C@H](NC(=O)CN1CCCC[C@@H](NC(=O)[C@H](Cc2ccccc2)NC(=O)[C@H](Cc2cnc[nH]2)NC(=O)CNC(=O)[C@@H](NC(=O)[C@H](NC(=O)[C@H](Cc2ccccc2)NC(=O)[C@@H](N)CCCNC(=N)N)C(C)(C)S)[C@@H](C)O)C1=O)C(=O)N[C@@H](Cc1ccc(O)cc1)C(=O)N1CCC[C@H]1C(=O)N[C@@H](CS)C(=O)O . 6.19

Requested read-out: pIC50. Entry: CC(C)C[C@H](NC(=O)[C@H]1CS[C@@H]2CC[C@@H](NC(=O)[C@H](Cc3ccccc3)NC(=O)[C@H](Cc3cnc[nH]3)NC(=O)CNC(=O)[C@@H](NC(=O)[C@H](NC(=O)[C@H](Cc3ccccc3)NC(=O)[C@@H](N)CCCN=C(N)N)C(C)(C)S)[C@@H](C)O)C(=O)N12)C(=O)N[C@@H](Cc1ccc(O)cc1)C(=O)N1CCC[C@H]1C(=O)N[C@@H](CS)C(=O)O 5.66

Field request: pIC50 | item: CC(C)C[C@H](NC(=O)CNC(=O)CNC(=O)[C@H](Cc1ccccc1)NC(=O)[C@H](Cc1cnc[nH]1)NC(=O)CNC(=O)[C@@H](NC(=O)[C@@H](NC(=O)[C@H](Cc1ccccc1)NC(=O)[C@H](CCCNC(=N)N)NC(=O)[C@@H](N)CCC(N)=O)C(C)(C)S)[C@@H](C)O)C(=O)N[C@@H](Cc1ccc(O)cc1)C(=O)N1CCC[C@H]1C(=O)N[C@@H](CCS)C(=O)N[C@@H](CC(N)=O)C(=O)NCC(=O)N1CCC[C@H]1C(=O)O 5.70

What value of pIC50 has been recorded for this entry: CC(C)C[C@H](NC(=O)CNC(=O)CNC(=O)[C@H](Cc1cccnc1)NC(=O)[C@H](Cc1cnc[nH]1)NC(=O)CNC(=O)[C@@H](NC(=O)[C@@H](NC(=O)[C@H](Cc1ccccc1)NC(=O)[C@H](CCCN=C(N)N)NC(=O)[C@@H](N)CCC(N)=O)C(C)(C)S)[C@@H](C)O)C(=O)N[C@@H](Cc1ccc(O)cc1)C(=O)N1CCC[C@H]1C(=O)N[C@@H](CS)C(=O)N[C@@H](CC(N)=O)C(=O)NCC(=O)N1CCC[C@H]1C(=O)O 4.22

// query pIC50 value for entry CC(C)C[C@H](NC(=O)CNC(=O)CNC(=O)[C@H](Cc1ccccc1)NC(=O)[C@H](Cc1cnc[nH]1)NC(=O)CNC(=O)[C@@H](NC(=O)[C@@H](NC(=O)[C@H](Cc1ccccc1)NC(=O)[C@H](CCCNC(=N)N)NC(=O)[C@@H](N)CCC(N)=O)C(C)(C)S)[C@@H](C)O)C(=O)N[C@@H](Cc1cccnc1)C(=O)N1CCC[C@H]1C(=O)N[C@@H](CS)C(=O)N[C@@H](CC(N)=O)C(=O)NCC(=O)N1CCC[C@H]1C(=O)O 4.04

Which pIC50 reading was recorded for the compound CC(C)C[C@@H](C(=O)N[C@@H](Cc1ccc(O)cc1)C(=O)N1CCC[C@H]1C(=O)N[C@@H](CS)C(=O)O)N(C)C(=O)CN(C)C(=O)CNC(=O)[C@H](Cc1ccccc1)NC(=O)[C@H](CC1CCNCC1)NC(=O)CNC(=O)[C@@H](NC(=O)[C@@H](NC(=O)[C@H](Cc1ccccc1)NC(=O)[C@@H](N)CCCNC(=N)N)C(C)(C)S)[C@@H](C)O ? 4.07

Entry CC(C)C[C@H](NC(=O)[C@H]1CCCN1C(=O)[C@@H](C)NC(=O)[C@H](Cc1ccccc1)NC(=O)[C@H](Cc1cnc[nH]1)NC(=O)CNC(=O)[C@@H](NC(=O)[C@@H](NC(=O)[C@H](Cc1ccccc1)NC(=O)[C@H](CCCN=C(N)N)NC(=O)[C@@H](N)CCC(N)=O)C(C)(C)S)[C@@H](C)O)C(=O)N[C@@H](Cc1ccc(O)cc1)C(=O)N1CCC[C@H]1C(=O)N[C@@H](CS)C(=O)N[C@@H](CC(N)=O)C(=O)NCC(=O)N1CCC[C@H]1C(=O)O has what pIC50? 5.43

Looking for the measured pIC50 of CC(C)C[C@H](NC(=O)CNC(=O)CNC(=O)[C@H](Cc1ccccc1)NC(=O)[C@H](Cc1cnc[nH]1)NC(=O)CNC(=O)[C@@H](NC(=O)[C@H](CCN)NC(=O)[C@H](Cc1ccccc1)NC(=O)[C@H](CCCN=C(N)N)NC(=O)[C@@H](N)CCC(N)=O)[C@@H](C)O)C(=O)N[C@@H](Cc1ccc(O)cc1)C(=O)N1CCC[C@H]1C(=O)N[C@@H](CCC(=O)O)C(=O)N[C@@H](CC(N)=O)C(=O)NCC(=O)N1CCC[C@H]1C(=O)O (H-QRF[Dab]TGHFGGLYPENGP-OH) , can you help? 4.09

Data provenance: ChEMBL document CHEMBL1150419
